Tested on: RWP1 cells
Assay: Effect of anti-FZD5 Fabs on proliferation of pancreatic cancer cell lines (percent growth inhibition)
Assay type: cell-based, human
Conditions: Fab 2 μg/ml
QUANTITY_MEASURED: percent growth inhibition, RWP1 2 μg/ml (%)
Report as a plain number; the unit % is understood.

Fab-2905: anti-FZD5 Fab with antibody variable region Fv-2905; CDR SEQ ID NOs: 35, 36, 44, 83, 120, 157 (antibody, V domains shown) VH: EVQLVESGGGLVQPGGSLRLSCAASGFNLSYYYMHWVRQAPGKGLEWVASIYSSYSYTSYADSVKGRFTISADTSKNTAYLQMNSLRAEDTAVYYCARSGYALDYWGQGTLVTVSS VL: DIQMTQSPSSLSASVGDRVTITCRASQSVSSAVAWYQQKPGKAPKLLIYSASSLYSGVPSRFSGSRSGTDFTLTISSLQPEDFATYYCQQSSWYYGYPFTFGQGTKVEIK    62.88

Next item in the queue.
### Prompt State the recorded percent growth inhibition, RWP1 2 μg/ml for this entry: Fab-2911: anti-FZD5 Fab with antibody variable region Fv-2911; CDR SEQ ID NOs: 35, 36, 50, 89, 126, 163 (antibody, V domains shown) VH: EVQLVESGGGLVQPGGSLRLSCAASGFNIYYSSMHWVRQAPGKGLEWVAYIYPYSGYTSYADSVKGRFTISADTSKNTAYLQMNSLRAEDTAVYYCARYFWWYGFDYWGQGTLVTVSS VL: DIQMTQSPSSLSASVGDRVTITCRASQSVSSAVAWYQQKPGKAPKLLIYSASSLYSGVPSRFSGSRSGTDFTLTISSLQPEDFATYYCQQGPWYPFTFGQGTKVEIK
### Response 20.34
